molecular target: T1, recombinant human ROR1 extracellular domain (human, UniProt Q01973 30-406); experiment: ELISA, soluble Fab on coated huROR1-ECD
T1 construct: biotinylated for the filter lifts; also called huROR1-ECD; human ROR1-ECD
T1 sequence (Q01973 30-406 limits assumed): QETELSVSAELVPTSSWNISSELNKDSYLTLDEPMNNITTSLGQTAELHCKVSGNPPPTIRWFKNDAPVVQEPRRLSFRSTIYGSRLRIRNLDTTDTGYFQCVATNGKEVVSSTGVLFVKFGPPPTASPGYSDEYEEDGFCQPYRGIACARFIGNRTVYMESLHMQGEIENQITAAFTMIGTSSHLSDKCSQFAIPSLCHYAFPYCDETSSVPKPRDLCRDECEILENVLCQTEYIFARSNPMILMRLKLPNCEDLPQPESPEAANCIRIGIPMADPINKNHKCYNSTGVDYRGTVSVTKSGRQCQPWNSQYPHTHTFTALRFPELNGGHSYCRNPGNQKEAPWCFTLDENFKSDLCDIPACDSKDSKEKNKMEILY
pKd: −log10 of the molar value.
Measurement Type: pKd

Ab1 Fab variant H2 G66D (Fab, V domains shown, Fab) VH: QVQLQESGPGLVKPSQTLSLTCTVSGYAFTAYNIHWVRQAPGQGLEWMGSFDPYDDGSSYNQKFKDRLTISKDTSKNQVVLTMTNMDPVDTATYYCARGWYYFDYWGHGTLVTVSS VL: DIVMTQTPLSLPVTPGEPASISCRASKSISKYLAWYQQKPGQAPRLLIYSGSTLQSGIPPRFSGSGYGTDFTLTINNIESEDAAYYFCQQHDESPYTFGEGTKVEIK
8.66
Ab1 Fab variant H1 A30T (Fab, V domains shown, Fab) VH: QVQLQESGPGLVKPSQTLSLTCTVSGYTFTAYNIHWVRQAPGQGLEWMGSFDPYDGGSSYNQKFKDRLTISKDTSKNQVVLTMTNMDPVDTATYYCARGWYYFDYWGHGTLVTVSS VL: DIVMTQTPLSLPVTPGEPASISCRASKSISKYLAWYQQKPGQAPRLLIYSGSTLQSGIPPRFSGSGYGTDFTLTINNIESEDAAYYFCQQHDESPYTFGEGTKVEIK
7.80
Ab1 Fab variant L2 S68G (Fab, V domains shown, Fab; also called SGGTLQS) VH: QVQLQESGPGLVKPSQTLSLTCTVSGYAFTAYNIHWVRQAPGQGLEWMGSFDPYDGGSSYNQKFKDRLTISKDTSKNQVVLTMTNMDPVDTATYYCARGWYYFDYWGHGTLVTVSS VL: DIVMTQTPLSLPVTPGEPASISCRASKSISKYLAWYQQKPGQAPRLLIYSGGTLQSGIPPRFSGSGYGTDFTLTINNIESEDAAYYFCQQHDESPYTFGEGTKVEIK
8.80
